- Test system: Stellaria
- experimental-protocol: Post-emergent herbicidal action (contact herbicide)
- Format: in vivo
- Parameters: key: 1=complete damage; 9=no action; Ratings of 1 to 4 (in particular 1 to 3) mean a good to very good herbicidal action
- assay-conditions: 2000 g of active substance/ha, sprayed in the 4- to 6-leaf stage, evaluated after about 18 days, ratings scale 1-9
Answer each item with its documented Post-emergent action, rating, Stellaria.
When you answer, write just the number.

[in] // map NC1=NS(N2CC3CCCC2CC3)=NC(Oc2c(F)c(F)c(F)c(F)c2F)=N1 (centres unmarked) to recorded Post-emergent action, rating, Stellaria (system: Stellaria)
[out] 1

[in] // map NC1=NC(Oc2cc(F)ccc2F)=NS(N2CCc3ccccc3CC2)=N1 (centres unmarked) to recorded Post-emergent action, rating, Stellaria (system: Stellaria)
[out] 3

[in] // map CC1CCC(OS2=NC(N)=NC(Oc3c(F)c(F)c(F)c(F)c3F)=N2)CC1 (centres unmarked) to recorded Post-emergent action, rating, Stellaria (system: Stellaria)
[out] 4

[in] // map CCCN(CCC)S1=NC(N)=NC(Oc2c(F)c(F)c(F)c(F)c2F)=N1 (centres unmarked) to recorded Post-emergent action, rating, Stellaria (system: Stellaria)
[out] 4

[in] // map NC1=NC(Oc2c(F)c(F)c(F)c(F)c2F)=NS(OC2CCCCCCC2)=N1 (centres unmarked) to recorded Post-emergent action, rating, Stellaria (system: Stellaria)
[out] 2

====

- System: Sinapis
- experimental-protocol: Post-emergent herbicidal action (contact herbicide)
- Type: in vivo
- assay-conditions: 2000 g of active substance/ha, sprayed in the 4- to 6-leaf stage, evaluated after about 18 days, ratings scale 1-9
Answer each item with its documented Post-emergent action, rating, Sinapis.
When you answer, write just the number.

[in] Endpoint output: Post-emergent action, rating, Sinapis of CC(C)N(C(C)C)S1=NC(Oc2c(F)c(F)c(F)c(F)c2F)=NC(N)=N1 (stereo not drawn) . Value?
[out] 3

[in] Endpoint output: Post-emergent action, rating, Sinapis of CC1(C)CC2CC(C)(CN2S2=NC(N)=NC(Oc3c(F)c(F)c(F)c(F)c3F)=N2)C1 (single isomer, unassigned) [6.154] . Value?
[out] 1

[in] Endpoint output: Post-emergent action, rating, Sinapis of NC1=NS(N2CCCCCCCCCCCC2)=NC(Oc2c(F)c(F)c(F)c(F)c2F)=N1 (stereo not drawn) . Value?
[out] 2

[in] Endpoint output: Post-emergent action, rating, Sinapis of NC1=NS(N2CC3CCCC2CC3)=NC(Oc2c(F)c(F)c(F)c(F)c2F)=N1 (stereo not drawn) . Value?
[out] 1

[in] Endpoint output: Post-emergent action, rating, Sinapis of CC1CC(N(C)S2=NC(N)=NC(Oc3c(F)c(F)c(F)c(F)c3F)=N2)CC(C)(C)C1 (stereo not drawn) . Value?
[out] 2

[in] Endpoint output: Post-emergent action, rating, Sinapis of CCC1CCCCN1S1=NC(N)=NC(Oc2c(F)c(F)c(F)c(F)c2F)=N1 (stereo not drawn) . Value?
[out] 2

[in] Endpoint output: Post-emergent action, rating, Sinapis of NC1=NS(N2CCCCCC2)=NC(Oc2c(F)c(F)cc(F)c2F)=N1 (stereo not drawn) . Value?
[out] 2

[in] Endpoint output: Post-emergent action, rating, Sinapis of CC1CC(C)CN(S2=NC(N)=NC(Oc3c(F)c(F)c(F)c(F)c3F)=N2)C1 (stereo not drawn) . Value?
[out] 2

[in] Endpoint output: Post-emergent action, rating, Sinapis of CC1(C)CCC(OS2=NC(N)=NC(Oc3c(F)c(F)c(F)c(F)c3F)=N2)CC1 (stereo not drawn) . Value?
[out] 2

====

Answer each item with its documented Post-emergent action, rating, Sinapis.
- Tested on: Sinapis
- experimental-protocol: Post-emergent herbicidal action (contact herbicide)
- Assay type: in vivo
- assay-conditions: 2000 g of active substance/ha, sprayed in the 4- to 6-leaf stage, evaluated after about 18 days, ratings scale 1-9
When you answer, write just the number.

[in] Endpoint output: Post-emergent action, rating, Sinapis of NC1=NC(Oc2c(F)c(F)c(F)c(F)c2F)=NS(N2CCCCCC2)=N1 (centres unmarked) [6.229] . Value?
[out] 2

[in] Endpoint output: Post-emergent action, rating, Sinapis of CC12CCCCC1N(S1=NC(N)=NC(Oc3c(F)c(F)c(F)c(F)c3F)=N1)CCC2 (centres unmarked) [6.181] . Value?
[out] 2

[in] Endpoint output: Post-emergent action, rating, Sinapis of NC1=NC(Oc2c(F)c(F)c(F)c(F)c2F)=NS(N2CCCC3CCCCCCC32)=N1 (centres unmarked) [6.102] . Value?
[out] 2

[in] Endpoint output: Post-emergent action, rating, Sinapis of CCC(C)(C)C1CCC(OS2=NC(N)=NC(Oc3c(F)c(F)c(F)c(F)c3F)=N2)CC1 (centres unmarked) [5.59] . Value?
[out] 1

[in] Endpoint output: Post-emergent action, rating, Sinapis of CC1(C)CCCC(OS2=NC(N)=NC(Oc3c(F)c(F)c(F)c(F)c3F)=N2)C1 (centres unmarked) [5.131] . Value?
[out] 1

====

- Test system: Setaria
- experimental-protocol: Herbicidal action before emergence of the plants (pre-emergent action)
- Assay type: in vivo
- assay-conditions: 2000 g of active substance/ha, sprayed immediately after sowing, evaluated after 3 weeks, ratings scale of nine levels
observed-property: Pre-emergent action, rating, Setaria
When you answer, write just the number.

[in] Endpoint output: Pre-emergent action, rating, Setaria of CC1(C)CCCC(OS2=NC(N)=NC(Oc3c(F)c(F)c(F)c(F)c3F)=N2)C1 (stereo not drawn) [5.131] . Value?
[out] 2

[in] Endpoint output: Pre-emergent action, rating, Setaria of NC1=NC(Oc2c(F)c(F)c(F)c(F)c2F)=NS(N2CCCC3CCCCC32)=N1 (stereo not drawn) [6.37] . Value?
[out] 2

[in] Endpoint output: Pre-emergent action, rating, Setaria of NC1=NC(Oc2c(F)c(F)c(F)c(F)c2F)=NS(N2CCC[C@H]3CCC[C@H]32)=N1 (relative stereo) [6.27] . Value?
[out] 3

[in] Endpoint output: Pre-emergent action, rating, Setaria of NC1=NS(N2CCCCCCCC2)=NC(Oc2c(F)c(F)c(F)c(F)c2F)=N1 (stereo not drawn) [6.257] . Value?
[out] 2

[in] Endpoint output: Pre-emergent action, rating, Setaria of CC1(C)CC2CC(C)(CN2S2=NC(N)=NC(Oc3c(F)c(F)c(F)c(F)c3F)=N2)C1 (single isomer, unassigned) [6.154] . Value?
[out] 1

[in] Endpoint output: Pre-emergent action, rating, Setaria of NC1=NC(Oc2cc(F)ccc2F)=NS(N2CCCC3CCCCC32)=N1 (stereo not drawn) [6.135] . Value?
[out] 3

[in] Endpoint output: Pre-emergent action, rating, Setaria of CCCC(CC)OS1=NC(N)=NC(Oc2c(F)c(F)c(F)c(F)c2F)=N1 (stereo not drawn) [5.332] . Value?
[out] 1

[in] Endpoint output: Pre-emergent action, rating, Setaria of NC1=NS(N2CC3CCCC2CC3)=NC(Oc2c(F)c(F)c(F)c(F)c2F)=N1 (stereo not drawn) [6.185] . Value?
[out] 4

[in] Endpoint output: Pre-emergent action, rating, Setaria of CC1CC(OS2=NC(N)=NC(Oc3c(F)c(F)c(F)c(F)c3F)=N2)CC(C)(C)C1 (stereo not drawn) [5.78] . Value?
[out] 2

[in] Endpoint output: Pre-emergent action, rating, Setaria of NC1=NS(N2CCc3ccccc3C2)=NC(Oc2c(F)c(F)c(F)c(F)c2F)=N1 (stereo not drawn) [6.145] . Value?
[out] 2

[in] Endpoint output: Pre-emergent action, rating, Setaria of NC1=NS(N2CCc3ccccc3C2)=NC(Oc2c(F)c(F)cc(F)c2F)=N1 (stereo not drawn) [6.173] . Value?
[out] 3

[in] Endpoint output: Pre-emergent action, rating, Setaria of NC1=NC(Oc2c(F)c(F)c(F)c(F)c2F)=NS(N2CC[C@H]3CCC[C@H]32)=N1 (relative stereo) [6.10] . Value?
[out] 4

[in] Endpoint output: Pre-emergent action, rating, Setaria of CC1(C)CC(OS2=NC(N)=NC(Oc3c(F)c(F)c(F)c(F)c3F)=N2)CC(C)(C)C1 (stereo not drawn) [5.146] . Value?
[out] 1

[in] Endpoint output: Pre-emergent action, rating, Setaria of CC1CCCC(OS2=NC(N)=NC(Oc3c(F)c(F)c(F)c(F)c3F)=N2)C1 (stereo not drawn) [5.317] . Value?
[out] 2

[in] Endpoint output: Pre-emergent action, rating, Setaria of CC(C)(C)C1CCC(OS2=NC(N)=NC(Oc3c(F)c(F)c(F)c(F)c3F)=N2)CC1 (stereo not drawn) [5.127] . Value?
[out] 2

[in] Endpoint output: Pre-emergent action, rating, Setaria of CC1CC2CCCCC2N1S1=NC(N)=NC(Oc2c(F)c(F)c(F)c(F)c2F)=N1 (stereo not drawn) [6.282] . Value?
[out] 2

[in] Endpoint output: Pre-emergent action, rating, Setaria of NC1=NC(Oc2c(F)c(F)c(F)c(F)c2F)=NS(N2CCCCC2)=N1 (stereo not drawn) [6.53] . Value?
[out] 3

[in] Endpoint output: Pre-emergent action, rating, Setaria of CC1CC(C)CN(S2=NC(N)=NC(Oc3c(F)c(F)c(F)c(F)c3F)=N2)C1 (stereo not drawn) [6.124] . Value?
[out] 1
